Hey, just so you know, these numbers are from paper PMC12373729.

Give measured pIC50 for each item. Keep answers brief.
- System: SARS-CoV-2
- RUN DESCRIPTION: microbe, parasite or virus in culture
- Assay type: cell-based
- REPORTED CONDITIONS: Vero E6 cells, MOI 0.01, compound together with virus for 2 h, titers at 48 h; Table S2; '-' = no significant antiviral effect; read-out: IC50
pIC50: −log10 of the molar value. Counter-ions that a name gives are not always drawn.

Form: molecule = Nc1ncnc2c1ncn2[C@@H]1O[C@@H]2COP(=O)(O)O[C@H]3[C@@H](O)[C@H](n4cnc5c(N)ncnc54)O[C@@H]3COP(=O)(O)O[C@H]2[C@H]1O [c-di-AMP sodium salt (2BA), c-di-AMP sodium salt] ; pIC50 = < 4.00

Form: molecule = NC[C@@H]1O[C@H](O[C@H]2[C@@H](O)[C@H](O[C@@H]3[C@@H](O)[C@H](N)C[C@H](N)[C@H]3O[C@H]3O[C@H](CN)[C@@H](O)[C@H](O)[C@H]3N)O[C@@H]2CO)[C@H](N)[C@@H](O)[C@@H]1O [Neomycin solution (NMY), neomycin solution] ; pIC50 = < 4.00

Form: molecule = C/C1=C2/[N-][C@H]([C@H](CC(N)=O)[C@@]2(C)CCC(=O)NC[C@@H](C)OP(=O)([O-])O[C@H]2[C@@H](O)[C@@H](n3cnc4cc(C)c(C)cc43)O[C@@H]2CO)[C@]2(C)N=C(/C(C)=C3N=C(/C=C4N=C1[C@@H](CCC(N)=O)C\4(C)C)[C@@H](CCC(N)=O)[C@]\3(C)CC(N)=O)[C@@H](CCC(N)=O)[C@]2(C)CC(N)=O.[Co+3].[OH-] [Hydroxocobalamin (HPA), hydroxocobalamin] ; pIC50 = < 4.00

----------
- RUN DESCRIPTION: Cell viability / 50% cytotoxic concentration, EZ-Cytox kit
- REPORTED CONDITIONS: African green monkey, CC50, Vero E6 cells, 0–100 μM; Table S3
PARAMETER: CC50 at 2 days

Form: molecule = CCC(CC)COC(=O)[C@H](C)N[P@](=O)(OC[C@H]1O[C@@](C#N)(c2ccc3c(N)ncnn23)[C@H](O)[C@@H]1O)Oc1ccccc1 ; CC50 at 2 days = 98.9 µM

----------
- RUN DESCRIPTION: in vitro
- REPORTED CONDITIONS: African green monkey, CC50
PARAMETER: CC50 at 2 days

Form: compound = N[C@@H](Cc1c[nH]c2ccc(O)cc12)C(=O)O [5-Hydroxy-L-tryptophan (4PQ), 5-hydroxy-L-tryptophan] ; CC50 at 2 days = > 100 µM

Form: compound = COc1cc2nc(N3CCNCC3)nc(N)c2cc1OC ; CC50 at 2 days = > 100 µM

Form: compound = Cc1cc2nc3c(=O)[nH]c(=O)nc-3n(C[C@H](O)[C@H](O)[C@H](O)COP(=O)(O)O)c2cc1C ; CC50 at 2 days = 98.9 µM

----------
- Tested on: Vero E6 cells
- REPORTED CONDITIONS: African green monkey, 2 days
PARAMETER: CC50

Form: molecule = Cc1cc2nc3c(=O)[nH]c(=O)nc-3n(C[C@H](O)[C@H](O)[C@H](O)COP(=O)(O)O)c2cc1C ; CC50 = > 100 µM
